test system: SK-OV-3 ovarian; experiment: NCI tumour cell line growth inhibition, 48 h
Provide the recorded TGI for the entries that follow.

Value (TGI, SK-OV-3 ovarian) for record CC1=C(C(=O)Nc2cc(=O)n(C)c(=O)n2C)C(c2cccc([N+](=O)[O-])c2)C(C(=O)Nc2cc(=O)n(C)c(=O)n2C)=C(C)N1 = > 100 µM

Value (TGI, SK-OV-3 ovarian) for record CC[C@@H]1C(=O)OC[C@@H]1Cc1cncn1C = > 100 µM

Value (TGI, SK-OV-3 ovarian) for record CCCCCCCCCCCCCCCCCCN(C)C(COC)COP(=O)([O-])OCC[N+](C)(C)C (stereo not given) = 25.8 µM

Value (TGI, SK-OV-3 ovarian) for record COc1cc(C2SCC(=O)N2c2ccc(-n3c(-c4ccccc4)nc4ccccc4c3=O)cc2)cc(OC)c1OC (stereo not given) = > 100 µM

Value (TGI, SK-OV-3 ovarian) for record CC(=C/C=C/C=C(C)\C=C\C=C(\C)C(=O)O)/C=C/C=C(/C)C(=O)O = > 100 µM

Value (TGI, SK-OV-3 ovarian) for record Nc1nc(N)c2cc(-c3ccccc3)cnc2n1 = > 100 µM

Value (TGI, SK-OV-3 ovarian) for record CCCC[C@H]1[C@@H](OCOc2ccccc2)COC(=O)N1[C@H](C)c1ccccc1 = > 56.1 µM

Value (TGI, SK-OV-3 ovarian) for record C/C(=N\Nc1cc(C)c2ccccc2n1)c1ccccn1 = 8.38 µM

Value (TGI, SK-OV-3 ovarian) for record Clc1nssc1=Nc1nonc1-c1ccccc1 = > 100 µM

Value (TGI, SK-OV-3 ovarian) for record Cc1cccc(C)c1CO = > 100 µM

----------
test system: SK-MEL-28 melanoma; experiment: NCI tumour cell line growth inhibition, 48 h
Provide the recorded GI50 for the entries that follow.

Value (GI50, SK-MEL-28 melanoma) for record Cc1cc(-c2nc3sccn3c2/C=N/N=C(N)N)c(C)s1 = 16.5 µM

Value (GI50, SK-MEL-28 melanoma) for record O=S(=O)(NCCCNc1nccc(-c2c(-c3ccc(F)c(O)c3)nc3sccn23)n1)c1ccc(F)cc1 = 0.104 µM

Value (GI50, SK-MEL-28 melanoma) for record CC(=O)N1C/C(=C/c2ccc(Cl)cc2)C(=O)/C(=C/c2ccc(Cl)cc2)C1 = 1.54 µM

Value (GI50, SK-MEL-28 melanoma) for record CNC(=S)NC(=O)c1c(Cl)n(C(=O)OC(C)(C)C)c2ccccc12 = > 100 µM

Value (GI50, SK-MEL-28 melanoma) for record C[C@@H](O)[C@H](NC(=O)N[C@@H](CC(N)=O)c1nc([C@@H](N)CO)no1)C(=O)O = > 100 µM

Value (GI50, SK-MEL-28 melanoma) for record O=C1NC(=O)C(c2ccccc2Cl)=C1Nc1cc(Cl)c(O)c(Cl)c1 = > 14.6 µM

Value (GI50, SK-MEL-28 melanoma) for record COc1ccc(-c2cc(-c3cccn3C)c(C#N)c(=O)[nH]2)cc1OC = > 100 µM

Value (GI50, SK-MEL-28 melanoma) for record O=c1cc(N2CCN(CCCCCOc3cc(O)c4c(=O)cc(-c5ccccc5)oc4c3)CC2)c2ccccc2o1 = 61.8 µM

Value (GI50, SK-MEL-28 melanoma) for record COc1cc(N2CCC(N3CCN(C)CC3)CC2)ccc1Nc1ncnc(Nc2ccccc2S(=O)(=O)C(C)C)n1 = 10.9 µM

Value (GI50, SK-MEL-28 melanoma) for record C=C1C(=O)O[C@H]2[C@H]1CC/C(COC(=O)c1cc3ccccc3o1)=C\CC[C@@]1(C)O[C@@H]21 = 1.75 µM

Value (GI50, SK-MEL-28 melanoma) for record C[C@]12CC[C@@H]3c4cc(-c5ccc(F)cc5)c(O)cc4CC[C@H]3[C@@H]1CC[C@@H]2O = 14.2 µM
